# system: ADRBK2 (human) (UniProt P35626)
# Sequence (P35626 whole entry, looked up): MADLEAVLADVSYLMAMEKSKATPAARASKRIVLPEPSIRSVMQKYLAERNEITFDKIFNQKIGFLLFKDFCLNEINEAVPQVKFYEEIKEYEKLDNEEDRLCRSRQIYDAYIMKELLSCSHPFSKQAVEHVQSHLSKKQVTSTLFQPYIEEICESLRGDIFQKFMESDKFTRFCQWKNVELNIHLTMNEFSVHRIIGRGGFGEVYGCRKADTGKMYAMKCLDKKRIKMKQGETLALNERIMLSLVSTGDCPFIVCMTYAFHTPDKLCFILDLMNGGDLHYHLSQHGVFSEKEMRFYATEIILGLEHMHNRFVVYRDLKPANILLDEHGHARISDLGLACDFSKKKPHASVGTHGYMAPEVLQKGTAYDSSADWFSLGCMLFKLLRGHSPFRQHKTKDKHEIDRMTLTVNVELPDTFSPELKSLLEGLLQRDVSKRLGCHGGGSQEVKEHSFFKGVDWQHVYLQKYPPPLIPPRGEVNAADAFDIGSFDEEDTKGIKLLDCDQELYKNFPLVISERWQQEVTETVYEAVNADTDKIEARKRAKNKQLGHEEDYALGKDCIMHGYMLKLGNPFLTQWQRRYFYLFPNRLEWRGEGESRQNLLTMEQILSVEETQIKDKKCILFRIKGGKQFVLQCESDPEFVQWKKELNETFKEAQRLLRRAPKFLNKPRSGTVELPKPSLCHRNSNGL
# experimental_protocol: radiometric filter-binding kinase assay, Kinase HotSpot
# measurement_setup: compound 0.5 µM; ATP 10 µM
quantity_name: residual activity (%)

[[record]]
chemical_string = "c1ccc2c(-c3ccncc3)c[nH]c2c1"
system = "ADRBK2 (human) (UniProt P35626)"
test_result = 95.4

[[record]]
chemical_string = "O=C1NC(=O)c2c1c1c3ccccc3[nH]c1n1cncc21"
system = "ADRBK2 (human) (UniProt P35626)"
test_result = 109

[[record]]
chemical_string = "COc1cc(Nc2c(C#N)cnc3cc(OCCCN4CCN(C)CC4)c(OC)cc23)c(Cl)cc1Cl"
system = "ADRBK2 (human) (UniProt P35626)"
test_result = 99.2

[[record]]
chemical_string = "CN(C)CCCn1cc(C2=C(c3c[nH]c4ccccc34)C(=O)NC2=O)c2ccccc21"
system = "ADRBK2 (human) (UniProt P35626)"
test_result = 99

[[record]]
chemical_string = "COc1ccc(S(=O)(=O)N(CCO)c2ccccc2CN(C)C/C=C/c2ccc(Cl)cc2)cc1"
system = "ADRBK2 (human) (UniProt P35626)"
test_result = 105

[[record]]
chemical_string = "COc1ccc(C(=O)Nc2sc3c(c2C(N)=O)CCCC3)cc1OC"
system = "ADRBK2 (human) (UniProt P35626)"
test_result = 103

[[record]]
chemical_string = "Cc1cccc(-c2nc(C(C)(C)C)[nH]c2-c2ccc3c(c2)OCO3)n1"
system = "ADRBK2 (human) (UniProt P35626)"
test_result = 96.3

[[record]]
chemical_string = "O=C1Nc2ccc(Br)cc2/C1=C\\c1cc2c([nH]1)CCCC2"
system = "ADRBK2 (human) (UniProt P35626)"
test_result = 89.9

[[record]]
chemical_string = "O=C1c2ccccc2-c2nc3nnnn3nc21"
system = "ADRBK2 (human) (UniProt P35626)"
test_result = 106

[[record]]
chemical_string = "CN(C)c1ccc(/C=C2\\C(=O)Nc3ccccc32)cc1"
system = "ADRBK2 (human) (UniProt P35626)"
test_result = 98.9

[[record]]
chemical_string = "C[C@@H]1CCN(C(=O)CC#N)C[C@@H]1N(C)c1ncnc2[nH]ccc12"
system = "ADRBK2 (human) (UniProt P35626)"
test_result = 99.2

[[record]]
chemical_string = "Fc1ccc(-c2nc3n(c2-c2ccncc2)CCS3)cc1"
system = "ADRBK2 (human) (UniProt P35626)"
test_result = 95

[[record]]
chemical_string = "CC(C)(C)c1cc(C=C(C#N)C#N)cc(Br)c1O"
system = "ADRBK2 (human) (UniProt P35626)"
test_result = 98

[[record]]
chemical_string = "CO[C@@H]1[C@H](N(C)C(=O)c2ccccc2)C[C@H]2O[C@]1(C)n1c3ccccc3c3c4c(c5c6ccccc6n2c5c31)C(=O)NC4"
system = "ADRBK2 (human) (UniProt P35626)"
test_result = 97.5

[[record]]
chemical_string = "COc1cc2ncnc(Nc3ccc(OCc4ccccc4)cc3)c2cc1OC"
system = "ADRBK2 (human) (UniProt P35626)"
test_result = 99.6

[[record]]
chemical_string = "COc1ccc(Cl)cc1NC(=O)Nc1cc(C)nc2ccccc12"
system = "ADRBK2 (human) (UniProt P35626)"
test_result = 103

[[record]]
chemical_string = "COc1ccc2c(c1)/C(=C/c1cnc[nH]1)C(O)=N2"
system = "ADRBK2 (human) (UniProt P35626)"
test_result = 101

[[record]]
chemical_string = "CS(=O)(=O)CCNCc1ccc(-c2ccc3ncnc(Nc4ccc(OCc5cccc(F)c5)c(Cl)c4)c3c2)o1"
system = "ADRBK2 (human) (UniProt P35626)"
test_result = 96.7

[[record]]
chemical_string = "CCCCc1c(-c2ccc(OC)cc2)[nH]c2nccnc12"
system = "ADRBK2 (human) (UniProt P35626)"
test_result = 95.6

[[record]]
chemical_string = "N#C/C(=C\\c1ccc(O)c(O)c1)C(=O)NCc1ccccc1"
system = "ADRBK2 (human) (UniProt P35626)"
test_result = 91.4

[[record]]
chemical_string = "CN(C)S(=O)(=O)c1ccc2c(c1)/C(=C/c1cc3c([nH]1)CCCC3)C(=O)N2"
system = "ADRBK2 (human) (UniProt P35626)"
test_result = 97

[[record]]
chemical_string = "Cn1c2ccccc2c2c3c(c4c5ccccc5n(CCC#N)c4c21)CNC3=O"
system = "ADRBK2 (human) (UniProt P35626)"
test_result = 106


* * *

# system: CDC42BPA (human)
# experimental_protocol: radiometric filter-binding kinase assay, Kinase HotSpot
# measurement_setup: compound 0.5 µM; ATP 10 µM
Overview of recorded residual activity for various compounds
quantity_name: residual activity (%)

[[record]]
chemical_string = "NC(=O)c1cccc(-c2cc(Nc3ccc(OC(F)(F)F)cc3)ncn2)c1"
system = "CDC42BPA (human)"
quantity_name = "residual activity"
test_result = 99.3

[[record]]
chemical_string = "CO[C@@H]1[C@H](N(C)C(=O)c2ccccc2)C[C@H]2O[C@]1(C)n1c3ccccc3c3c4c(c5c6ccccc6n2c5c31)C(=O)NC4"
system = "CDC42BPA (human)"
quantity_name = "residual activity"
test_result = 96

[[record]]
chemical_string = "O=C1NC(=O)c2c1c1c3ccccc3[nH]c1n1cncc21"
system = "CDC42BPA (human)"
quantity_name = "residual activity"
test_result = 92.7

[[record]]
chemical_string = "Cn1c2ccccc2c2c3c(c4c5ccccc5n(CCC#N)c4c21)CNC3=O"
system = "CDC42BPA (human)"
quantity_name = "residual activity"
test_result = 89.9

[[record]]
chemical_string = "CS(=O)(=O)CCNCc1ccc(-c2ccc3ncnc(Nc4ccc(OCc5cccc(F)c5)c(Cl)c4)c3c2)o1"
system = "CDC42BPA (human)"
quantity_name = "residual activity"
test_result = 88.2


* * *

Overview of recorded residual activity for various compounds
# system: TXK (human)
# experimental_protocol: radiometric filter-binding kinase assay, Kinase HotSpot
# measurement_setup: compound 0.5 µM; ATP 10 µM
quantity_name: residual activity (%)

[[record]]
chemical_string = "COc1cc(Nc2c(C#N)cnc3cc(OCCCN4CCN(C)CC4)c(OC)cc23)c(Cl)cc1Cl"
test_result = 27.5

[[record]]
chemical_string = "COc1ccc2c(c1)c(C1=C(c3c[nH]c4ccccc34)C(=O)NC1=O)cn2CCCN(C)C"
test_result = 82.8

[[record]]
chemical_string = "N#Cc1c[nH]c2c[nH]/c(=N\\Cc3cccnc3)cc2/c1=N\\c1ccc(F)c(Cl)c1"
test_result = 88.1

[[record]]
chemical_string = "COc1ccc(Cl)cc1NC(=O)Nc1cc(C)nc2ccccc12"
test_result = 98.9

[[record]]
chemical_string = "C[C@@H]1CCN(C(=O)CC#N)C[C@@H]1N(C)c1ncnc2[nH]ccc12"
test_result = 98.4

[[record]]
chemical_string = "CC(C)(C)c1cc(C=C(C#N)C#N)cc(Br)c1O"
test_result = 108

[[record]]
chemical_string = "Cc1cccc(-c2nc(C(C)(C)C)[nH]c2-c2ccc3c(c2)OCO3)n1"
test_result = 100

[[record]]
chemical_string = "Ic1cccc(CSc2nnc(-c3ccncc3)o2)c1"
test_result = 96.8

[[record]]
chemical_string = "c1ccc2c(-c3ccncc3)c[nH]c2c1"
test_result = 104


* * *

# system: PRKCZ (human)
# experimental_protocol: radiometric filter-binding kinase assay, Kinase HotSpot
# measurement_setup: compound 0.5 µM; ATP 10 µM
quantity_name: residual activity (%)

[[record]]
chemical_string = "CCCCc1c(-c2ccc(OC)cc2)[nH]c2nccnc12"
unit_label = "%"
test_result = 93.9

[[record]]
chemical_string = "NC(=O)c1cccc(-c2cc(Nc3ccc(OC(F)(F)F)cc3)ncn2)c1"
unit_label = "%"
test_result = 100

[[record]]
chemical_string = "COc1ccc2c(c1)c(C1=C(c3c[nH]c4ccccc34)C(=O)NC1=O)cn2CCCN(C)C"
unit_label = "%"
test_result = 78.2

[[record]]
chemical_string = "Ic1cccc(CSc2nnc(-c3ccncc3)o2)c1"
unit_label = "%"
test_result = 96.1

[[record]]
chemical_string = "O=C1Nc2ccc(Br)cc2/C1=C\\c1cc2c([nH]1)CCCC2"
unit_label = "%"
test_result = 104

[[record]]
chemical_string = "COc1cc(Nc2c(C#N)cnc3cc(OCCCN4CCN(C)CC4)c(OC)cc23)c(Cl)cc1Cl"
unit_label = "%"
test_result = 89.7

[[record]]
chemical_string = "N#Cc1c[nH]c2c[nH]/c(=N\\Cc3cccnc3)cc2/c1=N\\c1ccc(F)c(Cl)c1"
unit_label = "%"
test_result = 93.9

[[record]]
chemical_string = "Cc1nc(-c2ccccc2)c(-c2ccncc2)o1"
unit_label = "%"
test_result = 103


* * *

# system: IKBKE (human) (UniProt Q14164)
# Sequence (Q14164 whole entry, looked up): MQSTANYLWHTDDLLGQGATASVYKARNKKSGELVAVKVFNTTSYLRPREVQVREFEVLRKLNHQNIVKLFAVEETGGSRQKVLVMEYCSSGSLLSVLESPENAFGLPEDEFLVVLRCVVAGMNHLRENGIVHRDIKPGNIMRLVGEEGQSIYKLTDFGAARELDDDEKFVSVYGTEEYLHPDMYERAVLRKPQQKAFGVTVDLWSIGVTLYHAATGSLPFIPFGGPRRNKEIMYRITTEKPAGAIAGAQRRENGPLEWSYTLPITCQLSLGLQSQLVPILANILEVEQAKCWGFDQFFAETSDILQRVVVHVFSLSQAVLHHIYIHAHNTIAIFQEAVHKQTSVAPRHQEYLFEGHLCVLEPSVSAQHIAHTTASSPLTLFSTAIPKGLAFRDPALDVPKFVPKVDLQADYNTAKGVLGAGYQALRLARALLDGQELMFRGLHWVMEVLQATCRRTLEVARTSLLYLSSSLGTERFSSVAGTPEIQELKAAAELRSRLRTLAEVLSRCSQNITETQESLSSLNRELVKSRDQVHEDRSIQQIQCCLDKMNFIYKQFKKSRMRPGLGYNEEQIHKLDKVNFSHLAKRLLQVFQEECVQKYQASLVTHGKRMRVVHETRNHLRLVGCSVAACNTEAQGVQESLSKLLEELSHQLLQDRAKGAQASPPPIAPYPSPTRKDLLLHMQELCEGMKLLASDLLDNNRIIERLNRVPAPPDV
# experimental_protocol: radiometric filter-binding kinase assay, Kinase HotSpot
# measurement_setup: compound 0.5 µM; ATP 10 µM
Overview of recorded residual activity for various molecules
quantity_name: residual activity

[[record]]
chemical_string = "COc1ccc(C(=O)Nc2sc3c(c2C(N)=O)CCCC3)cc1OC"
test_result = "106%"

[[record]]
chemical_string = "CCCCc1c(-c2ccc(OC)cc2)[nH]c2nccnc12"
test_result = "100%"

[[record]]
chemical_string = "COc1cc(Nc2c(C#N)cnc3cc(OCCCN4CCN(C)CC4)c(OC)cc23)c(Cl)cc1Cl"
test_result = "75.4%"

[[record]]
chemical_string = "COc1ccc2c(c1)/C(=C/c1cnc[nH]1)C(O)=N2"
test_result = "92.5%"

[[record]]
chemical_string = "Cn1c2ccccc2c2c3c(c4c5ccccc5n(CCC#N)c4c21)CNC3=O"
test_result = "69.4%"

[[record]]
chemical_string = "O=C1NC(=O)c2c1c1c3ccccc3[nH]c1n1cncc21"
test_result = "103%"

[[record]]
chemical_string = "c1ccc2c(-c3ccncc3)c[nH]c2c1"
test_result = "96.4%"

[[record]]
chemical_string = "COc1ccc(S(=O)(=O)N(CCO)c2ccccc2CN(C)C/C=C/c2ccc(Cl)cc2)cc1"
test_result = "93.7%"

[[record]]
chemical_string = "CO[C@@H]1[C@H](N(C)C(=O)c2ccccc2)C[C@H]2O[C@]1(C)n1c3ccccc3c3c4c(c5c6ccccc6n2c5c31)C(=O)NC4"
test_result = "9.85%"

[[record]]
chemical_string = "NC(=O)c1cccc(-c2cc(Nc3ccc(OC(F)(F)F)cc3)ncn2)c1"
test_result = "107%"

[[record]]
chemical_string = "Cc1cncc2cccc(S(=O)(=O)N3CCCN(C(=O)CN)C[C@H]3C)c12"
test_result = "95%"

[[record]]
chemical_string = "COc1ccc2c(c1)c(C1=C(c3c[nH]c4ccccc34)C(=O)NC1=O)cn2CCCN(C)C"
test_result = "100%"

[[record]]
chemical_string = "O=C1c2ccccc2-c2nc3nnnn3nc21"
test_result = "89.2%"

[[record]]
chemical_string = "CN(C)c1ccc(/C=C2\\C(=O)Nc3ccccc32)cc1"
test_result = "98.2%"

[[record]]
chemical_string = "Cc1nc(-c2ccccc2)c(-c2ccncc2)o1"
test_result = "102%"

[[record]]
chemical_string = "Fc1ccc(-c2nc3n(c2-c2ccncc2)CCS3)cc1"
test_result = "101%"

[[record]]
chemical_string = "O=C1Nc2ccc(Br)cc2/C1=C\\c1cc2c([nH]1)CCCC2"
test_result = "89.5%"

[[record]]
chemical_string = "CN(C)S(=O)(=O)c1ccc2c(c1)/C(=C/c1cc3c([nH]1)CCCC3)C(=O)N2"
test_result = "87.9%"

[[record]]
chemical_string = "COc1cc2ncnc(Nc3ccc(Oc4ccccc4)cc3)c2cc1OC"
test_result = "101%"

[[record]]
chemical_string = "O=C(c1cc2cc(O)ccc2[nH]1)c1cc2cc(O)ccc2[nH]1"
test_result = "81.6%"

[[record]]
chemical_string = "N#C/C(=C\\c1ccc(O)c(O)c1)C(=O)NCc1ccccc1"
test_result = "105%"

[[record]]
chemical_string = "CS(=O)(=O)CCNCc1ccc(-c2ccc3ncnc(Nc4ccc(OCc5cccc(F)c5)c(Cl)c4)c3c2)o1"
test_result = "94.9%"

[[record]]
chemical_string = "CC(C)(C)c1cc(C=C(C#N)C#N)cc(Br)c1O"
test_result = "86.8%"

[[record]]
chemical_string = "COc1cc2ncnc(Nc3ccc(OCc4ccccc4)cc3)c2cc1OC"
test_result = "99.7%"

[[record]]
chemical_string = "Cc1cccc(-c2nc(C(C)(C)C)[nH]c2-c2ccc3c(c2)OCO3)n1"
test_result = "91.8%"

[[record]]
chemical_string = "COc1ccc(Cl)cc1NC(=O)Nc1cc(C)nc2ccccc12"
test_result = "107%"

[[record]]
chemical_string = "Ic1cccc(CSc2nnc(-c3ccncc3)o2)c1"
test_result = "102%"

[[record]]
chemical_string = "CN(C)CCCn1cc(C2=C(c3c[nH]c4ccccc34)C(=O)NC2=O)c2ccccc21"
test_result = "89.4%"

[[record]]
chemical_string = "O=C1C(Cl)=C(N2C(=O)CCC2=O)C(=O)c2ccccc21"
test_result = "99.6%"

[[record]]
chemical_string = "N#Cc1c[nH]c2c[nH]/c(=N\\Cc3cccnc3)cc2/c1=N\\c1ccc(F)c(Cl)c1"
test_result = "90.6%"

[[record]]
chemical_string = "C[C@@H]1CCN(C(=O)CC#N)C[C@@H]1N(C)c1ncnc2[nH]ccc12"
test_result = "94.8%"

